Answer each item with its documented GI50.
Tested on: 786-0
Experiment: NCI tumour cell line growth inhibition, 48 h
Activity calls are given as the source filed them. Cut-off read from the data, not from the text of the source: active = GI50 up to about 1.1 µM and inactive = higher.

Record summary for COc1ccc(/C=C2/CSC/C(=C/c3ccc(OC)c(OC)c3)C2=O)cc1OC : reported GI50 = 2.02 µM (inactive)

GI50 recorded for this compound, CCOC(=O)c1c(SCCO)n(-c2ccccc2)c(=S)n(-c2ccccc2)c1=O , is > 100 µM (inactive)

So, CC(C)(C)OC(=O)N1C/C=C\C(=O)C2(OCCO2)c2ccccc21 ? Its GI50 was 23.9 µM (inactive)

Entry COc1ccc(/N=N/c2c(N)nn(C)c2N)cc1 , GI50 reported as > 100 µM (inactive)

The compound CC1OC(c2ccc3c(c2O)C(=O)C2=C(C3=O)C3(O)C(=O)CC(C)(O)CC3(O)C=C2)CC(O)C1O (stereo unspecified) showed GI50 equal to 16.8 µM (inactive)

Looking up COc1cnc2oc3ccc(O)cc3c2c1-c1ccccc1 , I see its GI50 listed as 21.9 µM (inactive)

Record O=C1CC2(CCN(Cc3ccccc3)CC2)C(=O)N1N1CCCCC1 . Reported GI50: > 100 µM (inactive)

GI50 reported for this compound Cc1ccccc1[P+](C)(c1ccccc1C)c1ccccc1C : 24.8 µM (inactive)

The recorded GI50 for CN(C)c1nc(N(C)C)sc(=O)n1 is > 100 µM (inactive)

get_value(item= CC(=O)OC[C@@H](OC(C)=O)[C@H](OC(C)=O)[C@@H]1OC(C)(C)O[C@@H]1C1SCCCS1 , readout=GI50) returns > 100 µM (inactive)

Sure, the documented GI50 for CC(=O)NC(CCC(=O)C=[N+]=[N-])C(=O)O (stereo unspecified) is > 100 µM (inactive)

Values from ChEMBL document CHEMBL1201862
